The reported numbers originate from ChEMBL document CHEMBL1153223.

System: Cryptococcus neoformans
protocol.text: Antifungal activity against Cryptococcus neoformans NCIM 576 by standard agar plate method
Format: functional
For each record, check the reported MIC: if it is below 60 µg/mL write label 1, else write label 0.

Problem: For the compound CN1CCC(n2cc(-c3nnc(-c4ccccc4)c(-c4ccccc4)n3)nn2)CC1 , is MIC under 60 µg/mL?
label 1

Problem: For the compound OC(Cn1cncn1)(Cn1cncn1)c1ccc(F)cc1F [FLUCONAZOLE] , is MIC under 60 µg/mL?
label 1

Problem: For the compound O=C(c1ccccc1)N1CCC(n2cc(-c3nnc(-c4ccccc4)c(-c4ccccc4)n3)nn2)CC1 , is MIC under 60 µg/mL?
label 1

Problem: For the compound c1ccc(-c2nnc(-c3cn(C4CCNCC4)nn3)nc2-c2ccccc2)cc1 , is MIC under 60 µg/mL?
label 1

Problem: For the compound O=C(c1ccc(Cl)cc1)N1CCC(n2cc(-c3nnc(-c4ccccc4)c(-c4ccccc4)n3)nn2)CC1 , is MIC under 60 µg/mL?
label 1

Problem: For the compound CCCC(=O)N1CCC(n2cc(-c3nnc(-c4ccccc4)c(-c4ccccc4)n3)nn2)CC1 , is MIC under 60 µg/mL?
label 0

Problem: For the compound Cc1ccc(S(=O)(=O)N2CCC(n3cc(-c4nnc(-c5ccccc5)c(-c5ccccc5)n4)nn3)CC2)cc1 , is MIC under 60 µg/mL?
label 0

Problem: For the compound CCN1CCC(n2cc(-c3nnc(-c4ccccc4)c(-c4ccccc4)n3)nn2)CC1 , is MIC under 60 µg/mL?
label 1

Problem: For the compound CC(C)(C)OC(=O)N1CCC(n2cc(-c3nnc(-c4ccccc4)c(-c4ccccc4)n3)nn2)CC1 , is MIC under 60 µg/mL?
label 0

Problem: For the compound Clc1ccc(COC(Cn2ccnc2)c2ccc(Cl)cc2Cl)c(Cl)c1 (stereo not given) [MICONAZOLE] , is MIC under 60 µg/mL?
label 1
